# assay_name: Metabolic stability and intrinsic clearance in rat hepatocytes (with IVIVE)
# Type: in vitro ADME
# details: Rat hepatocytes
assay_endpoint: hepatocyte CLint at 0.5 μM (µL/min/1e6 cells)
The figure you give is taken to be in µL/min/1e6 cells; do not add the unit.

CCc1c(C)nn2c(N)c(C#N)c(NCCc3ccn(C4COCC4CO)n3)nc12 (single isomer, unassigned; (-)) [Example 122b]; 4.7

--- query ---
Form field hepatocyte CLint at 0.5 μM, entry Cc1cccc(CCNc2nc3c(C)c(C)nn3c(N)c2C#N)n1 : 34

###

# assay_name: Pharmacokinetic study in rats
# Assay type: in vivo, male Sprague-Dawley (SD) rats
# details: male, Sprague-Dawley, plasma, iv; Rat, i.v, 5 mg/kg
# Description: Intravenous (i.v) and Oral formulations for pharmacokinetic (PK) studies was formulated in different vehicles and excipients to achieve the desirable solubility for intravenous and Oral routes of administration. Appropriate amount of the test compound was weighed and dissolved in required volume of the vehicles, followed by vertexing for a few seconds to dissolve the compound. […] Plasma samples were analysed for a fit-for purpose LC-MS/MS method with a lower limit of quantification. […]
assay_endpoint: clearance

For CCc1c(C)nn2c(N)c(C#N)c(NCCc3ccn(C4COCC4CO)n3)nc12 (single isomer, unassigned; (-)) [Example 122b] the molecule record lists clearance as 78 mL/min/kg
